- assay.overview: EBV LMP1 TES2 canonical NF-kB signalling blockers – cell-based, HEK293, luciferase, cherry-pick, dose response (AID 588343)
- reported.conditions: HEK293 LMP1 TES2 NF-kB luciferase reporter, 16 h; series mostly up to 35 µM
In all, about 1,200 compounds went through this assay and about 650 (54%) were called active. About 5% were inconclusive and are not listed. The set was probably picked from earlier hits. The list is a sample of the results. Potency and affinity values are given separately.
parameter: outcome

Examples with their reported outcome follow.
compound	outcome
COc1ccc(N2C3=[N+](CC2(C)O)c2ccccc2CC3)cc1 (stereo not given)	inactive
CC1CCCN(C(=O)COC(=O)c2n[nH]c3ccccc23)C1 (stereo not given)	inactive
CCCCCC(=O)N1C[C@@H](O)[C@H](n2cc(C3CC3)nn2)C[C@@H]1c1ccc(C)cc1	inactive
COc1ccc(C(=O)N2CC(=O)Nc3ccccc32)cc1S(=O)(=O)N1CCCC1	inactive
CN(CC(=O)Nc1cccnc1)S(=O)(=O)c1ccc(Br)cc1	inactive
Cc1ccc(S(=O)(=O)N[C@H](C(=O)N2CCC(C(=O)N[C@@H](CC(=O)O)C(=O)O)CC2)C(C)C)cc1	inactive
COc1cc2c(CCNC(C)=O)c[nH]c2cc1Cl	inactive
Cn1c(=O)[nH]c(=O)c2c1nc(CN1CCOCC1)n2CCCc1ccccc1	inactive
CN1CCN(CCOc2ccc(Cc3ccccc3)cc2)CC1	inactive

Query :: Given `COc1ccc(NC(=O)COC(=O)/C=C/c2ccc(OC)c(S(=O)(=O)N3CCOCC3)c2)cc1` , state its recorded outcome.
Result :: inactive

Reference for the values: PubChem BioAssay AID588343
